Attribution: the supplement of paper PMC11865577

test system: TO-3-N3-2 (biotin conjugate); assay: pull-down binding Z-score (relative to library population); higher = stronger binding; settings: RNA library: Library-2
assay readout: pull-down binding Z-score

> print(dat)
                                   residues      val
1  GGGGCUGGCUGGGUCUGGUAGUGGGCAUCAGCUGGCCCU [hsa-mir-1207]     1.51
2   AAUUUUUUUUUAAUUUAAAAAAUU [hsa-mir-3938]    0.127
3   CCUGCUGUGUGAAACAAAAGUAAG [hsa-mir-302c]   0.0469
4    CGUACGCUUUAUCUGUGACGUAUG [hsa-mir-411]   -0.338
5  CUCUCCUCCAGCUCAGCUGGUCAGGAGAG [hsa-mir-3160-1]  -0.0211
6        CUUUUGGAAAAUAGAAAAG [hsa-mir-3184]    0.161

* * *

test system: G-clamp-N3 (biotin conjugate); test: pull-down binding Z-score (relative to library population); higher = stronger binding; details: RNA library: Library-1 (pre-miRNA loops + repeats)
Documented pull-down binding Z-score across a set of sequences
assay readout: pull-down binding Z-score

> print(dat)
                                    residues              assay.readout      val
 1    GUAAGAGAGACUCUCGCUUCCUGC [hsa-mir-874]  pull-down binding Z-score       -1
 2          CCAUGCAACAUUUGG [hsa-mir-1302-4]  pull-down binding Z-score     0.29
 3  UGGUGGAGAUGGAGAGCCCUGAGCCUCCA [hsa-mir-6777]  pull-down binding Z-score    0.173
 4        UUGUGUCCAUCAUGCAACAA [hsa-mir-802]  pull-down binding Z-score    -1.17
 5        GUGUUGGGUAUAAGUAACA [hsa-mir-1270]  pull-down binding Z-score   -0.877
 6          AAGCUGACAGACAGCUG [hsa-mir-5691]  pull-down binding Z-score     1.16
 7  CUUCUGCUUCCUCUUAGCGCAGGAG [hsa-mir-1914]  pull-down binding Z-score    -1.66
 8  CCCAAACUUGGAGCACUUGACCUUUGGC [hsa-mir-4687]  pull-down binding Z-score    -1.02
 9   GUUGGGCAUCCACAGUCUCCCACC [hsa-mir-1911]  pull-down binding Z-score    -1.43
10  CACACUGGUGAGGUAACAGGAUCCGGUG [hsa-mir-182]  pull-down binding Z-score    0.926
11    CCGUGCCCUGGCCACUCAUUCGG [hsa-mir-6741]  pull-down binding Z-score  -0.0927
12  AUGUUCACUUGAUUAAUGGCGAAUAU [hsa-mir-1185-2_1185-1]  pull-down binding Z-score    0.337
13     AUGUUUAUUGUAAAGAUACUUU [hsa-mir-1305]  pull-down binding Z-score   -0.249
14   CCCCCAAUUAAAGUAGAUUGGGGG [hsa-mir-3153]  pull-down binding Z-score    0.917
15  ACCUGUGUGUGCCCAAGUGUUUCUAGCAAACACAGGG [hsa-mir-3649]  pull-down binding Z-score    0.215
16     UUUAGUAUGCCACAUUUCUAAA [hsa-mir-4282]  pull-down binding Z-score    -1.54
17    AUGGGAGCCCAGAGACGUCCUAU [hsa-mir-8074]  pull-down binding Z-score    0.253
18  CAAUGAAGACAUGAAGACCCAAUGUCUUCAUUG [hsa-mir-4529]  pull-down binding Z-score   -0.114
19     CCUGCAGCCCCCAGGUGGGGGG [hsa-mir-4271]  pull-down binding Z-score     0.67
20  CCUCACCUGCUGAGAG [hsa-mir-3670-3_3670-2_3670-1_3670-4]  pull-down binding Z-score    0.409
21  UCCUCAGACCAGGUGGCUCCCGAGCCACCCCAGGCUGUAGG [hsa-mir-2392]  pull-down binding Z-score    -1.09
22  GCUUUCUGUGGUCAGAAAGAAAAGCAAGU [hsa-mir-520f]  pull-down binding Z-score     1.15
23          CUCACCAUAGUGGUGGA [hsa-mir-1288]  pull-down binding Z-score     -1.2
24        GAGACAACUUCCCAGUCUC [hsa-mir-6717]  pull-down binding Z-score  -0.0467
25   AAUGUCAGGGCCACCCCUGACCUU [hsa-mir-6837]  pull-down binding Z-score    0.482
26  UUAACAUGUUGAGCAUUACUCAUGUUAG [hsa-mir-3684]  pull-down binding Z-score   -0.319
27  UGUGGUGGGUGGUGGCCUGCGGUGAGCAGGGCCCUCA [hsa-mir-1228]  pull-down binding Z-score    0.921
28    CCCUGCACUCAGUUUGCACAGGG [hsa-mir-4511]  pull-down binding Z-score    0.204
29  UUUCUGUUGUCUGAAAGCAGA [hsa-mir-515-1_515-2]  pull-down binding Z-score   -0.445
30     UUGAAUCACACACACAUUUCAA [hsa-mir-4803]  pull-down binding Z-score   -0.451
31  UUUGCCAUUAAAAGUAAUGGUAAA [hsa-mir-548x-2]  pull-down binding Z-score   -0.261
32   CACUCAGUAAAUAUUUGUUGAGUG [hsa-mir-1271]  pull-down binding Z-score    0.231
33  GUGGUGGGCACUGCUGGGGUGGGCACAGCAGCCAUGCAGAGCGGGCAUUUGACCCCGUGCCACCCUUUUCCCCAG [hsa-mir-1227]  pull-down binding Z-score    0.221
34  CCACAUAGGAGGGACAGCGGCCUUUCCAACAGG [hsa-mir-9500]  pull-down binding Z-score   -0.994
35      GGUGUCAUGCCCCAAGAUAACC [hsa-mir-634]  pull-down binding Z-score   -0.532
36           AAUGACUCAUAGUCAA [hsa-mir-4475]  pull-down binding Z-score    -0.88
37  GUGUGUGGCGUGGGUGCUGCGGGGCCGUCAGGGUGCCUGCGGGACGCUCAC [hsa-mir-6765]  pull-down binding Z-score     1.58
38  UGGUUAGCUUUUUUUUUUUUUUGAGAUGGAGUCUGGCUC [hsa-mir-8086]  pull-down binding Z-score   -0.608
39          GGUUCUCAGUCAGAACC [hsa-mir-6813]  pull-down binding Z-score    0.755
40  CCUGCCCAAAUGGUGGAGCAGAUUCGAGGGGCAGG [hsa-mir-4436b-2_4436b-1]  pull-down binding Z-score     2.51
41  UGGCUUCUGCCUCUUUCUUUGUGGAAGCCA [hsa-mir-4269]  pull-down binding Z-score     1.04
42  UGUGGCAGUGGCAGAGGUCGCUACA [hsa-mir-6856]  pull-down binding Z-score     1.12
43  UUUUGCCAUUACUUUUACAGGCAAAA [hsa-mir-548aa-1]  pull-down binding Z-score   -0.445
44  GACAGGCUGGCCUCUGGAUGACCUGC [hsa-mir-5189]  pull-down binding Z-score    0.679
45  UGGUUACGUGUUUGAUGGUUAAUCA [hsa-mir-376a-2]  pull-down binding Z-score     1.55

* * *

test system: TO-3-N3 (biotin conjugate); assay: pull-down binding Z-score (relative to library population); higher = stronger binding; conditions: RNA library: Library-2
assay readout: pull-down binding Z-score

> print(dat)
                                    residues              assayed.target              assay.readout     val
 1   CCCAUAUGGAUUACUUUGCUAUGGA [hsa-mir-206]  TO-3-N3 (biotin conjugate)  pull-down binding Z-score  0.0156
 2  UUGUGGCUUUGGGUGGAUAUUAAUCAGCCACAG [hsa-mir-383]  TO-3-N3 (biotin conjugate)  pull-down binding Z-score   0.257
 3  GGGAAGGCGAAAGACC [IAV_invivo_PA_3_Motif_21+IAV_invivo_PA_3_Motif_21]  TO-3-N3 (biotin conjugate)  pull-down binding Z-score   0.143
 4  CACAAGGCAGAUGGGCUAUAUAAACGUUUUCGCUUUUCCGUUUACGAUAUAUAGUCUACUCUUGUG  TO-3-N3 (biotin conjugate)  pull-down binding Z-score   -0.81
 5  ACAAUAUGCUAUUAUAAUCGUAUGGCAUUGU [hsa-mir-2355]  TO-3-N3 (biotin conjugate)  pull-down binding Z-score  -0.919
 6             CUUUGCUACUGCUC [hsa-mir-6072]  TO-3-N3 (biotin conjugate)  pull-down binding Z-score  -0.202
 7  CAUGCAGGCCACACUGACGGUAACGUUGCAGG [hsa-mir-431]  TO-3-N3 (biotin conjugate)  pull-down binding Z-score   0.647
 8        UUGCUCUUUGGUGGAGAUA [hsa-mir-6074]  TO-3-N3 (biotin conjugate)  pull-down binding Z-score   0.509
 9  ACACUGCGCUGCCCCAGACCCACUGU [hsa-mir-210]  TO-3-N3 (biotin conjugate)  pull-down binding Z-score   0.364
10  CUCUGCUGUGUAAAUAGUUCUGAGUAGU [hsa-mir-454]  TO-3-N3 (biotin conjugate)  pull-down binding Z-score   -0.17
11  GGCAGGGUCCUCCAGCUCAUUCCUCCUGCC [hsa-mir-6829]  TO-3-N3 (biotin conjugate)  pull-down binding Z-score   0.564
12      GCGCUGCCAGAAACUGGCUGAGCGC [bulge-UG]  TO-3-N3 (biotin conjugate)  pull-down binding Z-score   0.553
13   UCCUGGGAAGCAUGGUAGCCAGGA [hsa-mir-5192]  TO-3-N3 (biotin conjugate)  pull-down binding Z-score   0.314
14             CUACUCAAGGCUAG [hsa-mir-4266]  TO-3-N3 (biotin conjugate)  pull-down binding Z-score    1.32
15  AUCAGCAGAGACAUGAGGUGAUCAAAAACCUUUUUUCAAAGCAGUGGG [hsa-mir-4300]  TO-3-N3 (biotin conjugate)  pull-down binding Z-score    0.48
16                         UCACACUAAAAAGUGGA  TO-3-N3 (biotin conjugate)  pull-down binding Z-score  -0.691
17                UAAUAACGCUACUAAUGUUGUUAUUA  TO-3-N3 (biotin conjugate)  pull-down binding Z-score  -0.595
18     UUUCCCAUUAUUUUAAUUGCGAA [hsa-mir-570]  TO-3-N3 (biotin conjugate)  pull-down binding Z-score  -0.699
19  AUAGUUGAGGAGGACACCCAAGGAGAUCACUAU [hsa-let-7e]  TO-3-N3 (biotin conjugate)  pull-down binding Z-score   0.341
20  AUGCACCCAUAUUUUAAUAUCAAACUAUGACAAAUU [hsa-mir-3974]  TO-3-N3 (biotin conjugate)  pull-down binding Z-score  -0.386
21  CUUUGUCAUUAAAACCAAUAACAAAA [hsa-mir-548ap]  TO-3-N3 (biotin conjugate)  pull-down binding Z-score   0.331
22  CCCAAUGUUGUUAAACCACACGAAAAGGG [IAV_invivo_PA_3_Motif_15+IAV_invivo_PA_3_Motif_15]  TO-3-N3 (biotin conjugate)  pull-down binding Z-score   0.621
